# Test system: SNB-19 CNS
# test: NCI-60 one-dose screen, 48 h (100 = growth as untreated, 0 = no growth, -100 = all killed)
# condition.summary: 10 µM unless noted
About 83,000 compounds went through this panel and 20% of them were active in at least one assay; those are over-represented in the sample as a whole.
Could you mark each record yes (1) if its growth falls strictly under 90%, and no (0) if it equals or exceeds it?

Example cases with answers are listed next.
compound	label.class
C/C(=N\Nc1nc(C)cs1)c1cc2ccccc2o1	no (0)
CCN(CC)CCCC(C)Nc1ccc2cc(OC)ccc2n1 (stereo not given)	no (0)
CCN=C1C=CC(=C(c2ccc(N(C)C)cc2)c2ccc(N(C)C)cc2)c2ccccc21	yes (1)

For this compound, is growth lower than 90%? "S=c1ssnc1-c1cccs1"
no (0)

Lookup "Cc1ncc(C(=O)Nc2ccc(CN3CCN(C)CC3)c(C(F)(F)F)c2)cc1C#Cc1cnc(N)c2ccncc12"
yes (1)

Record: Cc1ccc2[nH]c(=O)c3c(c2c1)OC(N)=C(C#N)C31C(=O)c2cccc3cccc1c23 (stereo not given)
no (0)

Queued: "O=C(O)CCCc1cnc2c3sccc3nc(SCc3c(Cl)cccc3Cl)n12"
yes (1)

Also, "COc1ccc(Cc2cnc(NC(=O)c3sc4ccccc4c3Cl)s2)cc1" please.
yes (1)
